Exercise: state measured pIC50 for each of the compounds provided.
Biological target: catalytic domain of human PARP14 (Homo sapiens (Human))
Sequence (Q460N5 1611-1801): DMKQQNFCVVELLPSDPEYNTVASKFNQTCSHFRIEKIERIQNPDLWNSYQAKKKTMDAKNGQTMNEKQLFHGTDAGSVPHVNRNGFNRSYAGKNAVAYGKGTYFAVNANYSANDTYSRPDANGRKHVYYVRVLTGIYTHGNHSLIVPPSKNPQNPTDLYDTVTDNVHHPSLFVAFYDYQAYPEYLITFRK
Test: Enzymatic assay for inhibition of PARP14 (DELFIA, auto-modification by biotin-NAD)
Settings: 50 nM PARP14, 3 μM biotin-NAD
Protocol: An N-terminal His-TEV fusion tag was used to purify the protein from cell lysates. The His-TEV tag was left on the protein for use in the enzymatic assay. Enzymatic inhibition of PARP14 was measured using a dissociation-enhanced lanthanide fluorescence immunoassay (DELFIA) monitoring the auto-modification of PARP14 by biotinylated nicotinamide adenine dinucleotide (biotin-NAD). […]
pIC50: −log10 of the molar value. Counter-ions that a name gives are not always drawn.

Q) If you can, please state the reported pIC50 value of O=c1[nH]c(CSC2CCOCC2)nc2cc(N[C@H]3CCC[C@@H]3F)cc(F)c12 (racemic) .
A) > 6.00

Q) If you can, please state the reported pIC50 value of Cc1cccc2c(=O)[nH]c(CS[C@@H]3CCC[C@H](CN(C)C)C3)nc12 (relative stereo) [Example 72, Trifluoroacetate] .
A) < 5.00
